experiment: soluble on expression in E. coli; label from the status in PepcDB or PDB records
quantity: soluble on expression in E. coli

INSERT INTO results (inputsequence, testresult) VALUES
  ('MSKSLKKLVEESREKNQPEVDMSDRGISNMLDVNGLFTLSHITQLVLSHNKLTMVPPNIAELKNLEVLNFFNNQIEELPTQISSLQKLKHLNLGMNRLNTLPRGFGSLPALEVLDLTYNNLSENSLPGNFFYLTTLRALYLSDNDFEILPPDIGKLTKLQILSLRDNDLISLPKEIGELTQLKELHIQGNRLTVLPPELGNLDLTGQKQVFKAENNPWVTPIADQFQLGVSHVFEYIRSETYKYLYGRHMQANPEPPKKNNDKSKKISRKPLAAKNR', 'not soluble'),
  ('MEDISDPEVILEYGVYPAFIKGYTQLKANIEEALLEMSNSGQALDIYQAVQTLNAENMLLNYYESLPFYLNRQSILANMTKALKDAHIREAMAHYKLGEFAHYQDTMLDMVERTIKTF', 'not soluble'),
  ('KTHFVIQLKEDSQLMDEVVVVGFGTQKKINLTGAVTAVNIQETLGDRPITNVTAALQGVVPGLKIEGTTGTPGDNLSYNIRGTTSINGGGPLVLVNNVPMDINMIDPQDIESVSVLKDAASAAIYGARAAFGVILITTKQGKKDM', 'not soluble'),
  ('MQPIPDVNQRIARISAHLHPPKSQMEESSALRRANCRAKGGAPGFKVAILGAAGGIGQPLAMLMKMNPLVSVLHLYDVVNAPGVTADISHMDTGAVVRGFLGQQQLEAALTGMDLIIVPAGVPRKPGMTRDDLFKINAGIVKTLCEGIAKCCPRAIVNLISNPVNSTVPIAAEVFKKAGTYDPKRLLGVTMLDVVRANTFVAEVLGLDPRDVDVPVVGGHAGVTILPLLSQVKPPSSFTQEEISYLTDRIQNGGTEVVEAKAGAGSATLSMAYAAVKFADACLRGLRGDAGVIECAFVSSQVTELPFFASKVRLGRNGIEEVYSLGPLNEYERIGLEKAKKELAGSIEKGVSFIRSHHHHHH', 'soluble'),
  ('MGSDKIHHHHHHMNYEDFKEVIHGRRSVRKFTEQEVATSDIKDIIDCARYAPSDTNSQTWEFLVIMNREKIKEIEQMTWDALHKLAAKAAKNGEEKAGKLLTRSFGPYATAFSEAPVLIVCLATPYESKFREKIFDPIAFVPDSVWEEEGIKSSCLAAQNLMLAAHAKGLGTCPMTGPVLLAQDELRQYLQIEPEKQINMVISLGFPKDKPKKLPRKEVDEITTFVF', 'not soluble'),
  ('DDDLEVKEENGVWVLNDGNFDNFVADKDTVLLEFYAPWCGHCKQFAPEYEKIASTLKDNDPPIAVAKIDATSASMLASKFDVSGYPTIKILKKGQAVDYDGSRTQEEIVAKVREVSQPDWTPPPEVT', 'soluble'),
  ('MSQAFTESVKTSLGPNATPRAKKLIASLVQHVHDFARENHLTTEDWLWGVDFINRIGQMSDSRRNEGILVCDIIGLETLVDALTNESEQSNHTSSAILGPFYLPDSPVYPNGGSIVQKAIPTDVKCFVRGKVTDTEGKPLGGAQLEVWQCNSAGFYSQQADHDGPEFNLRGTFITDDEGNYSFECLRPTSYPIPYDGPAGDLLKIMDRHPNRPSHIHWRVSHPGYHTLITQIYDAECPYTNNDSVYAVKDDIIVHFEKVDNKDKDLVGKVEYKLDYDISLATESSIQEARAAAKARQDAEIKL', 'soluble'),
  ('SLQPEAPKPPQIGMANPASVYCQQKGGTLIPVQTAQGVSNNCKLPGGETIDEWALWRLDHPAGEK', 'soluble'),
  ('MGSDKIHHHHHHMIMIRQLTPADFDAVITLGEIVHGSGYMDIAELTAIYHKGIKNGINANFVALENEQLIGFRLTYAAGQWPQDQWCTVDKWGVKFEDVCYFKSNTIAESGRGQGLGGKLLAASKAAVIAQGAKAGVSHLWQQSPNNAAVRYFTKAGGKLIKQHPQRWHQRYMGDDYICVLCGEDCHCVACEMLLLF', 'not soluble'),
  ('MGSDKIHHHHHHMKTKHILFGIFISSAVTSCNSIKGSGNVVTSIRPVQEFSGIISSGSFNMYLTQSAVQEVKIIADDNVLQYIETNVRDGILTVTFKDKVHIKNSTRLDIYVSGPVIEKINLEGSGNIQTTNRLHSNNLVLVLNGSGKMVAEDACETAIVQLNGSGNITLTGKAKNQTASVSGSGNVNASGFTTENTTASLSGSGSIGLYATESLHASLSGSGSIRYSGNPASVKKEVSGSGMVESR', 'not soluble'),
  ('MSLEPCWKVGFAETSGCLPKLCIAQLRLPAFCNSEGLFGLFDGETGNGVPNLLVKAIPKILLEERTVKETANDYMKYTLLSAHRELKQRGQQEAVNVTLCHIARSRLPTEAMSYLPQTVASGRKFILRVATVGESSAVLIKHNRCVLLNKGSPARKLGLSANFPVTVPDPEVQEVVLTDADEYLVLGNRKLWEVITMETVAEEIRKEENILLAAKRVQDIAQSYGAEENLSVMIVRFNEGHHHHHH', 'soluble'),
  ('MGSDKIHHHHHHMVNAAQAVMESSGQFHVEPEGVIRMSVPKAVGHFMIHPHLPEFLERYPKIDIQMLLEDRYVDLIDDGVDLALRITEQPPGGLMGRKLIDIDHLVCATPEYLSKHGTPNHPHDLKQHECIYLGEQASDSKWKFQQGNKSISVAVRGRYAANHTGVRLSAALQHLGIASLPYFVARHALQQGTLVQVLPDWYFKTYYSGGLWLLYPPTRHVQPKLSVLIQYLADKLAAEPTLFKLK', 'not soluble'),
  ('IALENTIEQRLAADVATLVSAARVEKGRLVMPEHLPVEEFNLPEAKVLGYIYDQNGDLLWRSTSAADESINYTPRYDGRGNEFHTTRDAKGEEFFVFDVEIDLLRGKQAAYSIVTMQSVSEFESLLKGFREQL', 'not soluble'),
  ('LLESRELVEKIVSILEEKKAKDLNIIDIREISILADYFVICSGTSTTHIKTLADEVEEKMLEAGIELLHKEGYNSARWILLDYGEVVVHIFHEEDRQFYNLERLWADGVMKHRQ', 'soluble');
